# credit: patent US20220372014A1

Target: MIF (Homo sapiens, UniProt P14174)
Assay: Nuclease assay of Example 3 (MIF inhibitory activity, Table 4)
Type: biochemical
Parameters: concentration or dose not given beside the values
Conditions: nuclease assay of Example 3
Here the recorded (%) inhibition of MIF nuclease activity is given for each entry.
# value in %; strip the unit string

Use these answered entries as a reference point.
# compound, measuredValue
measured = [
    ("COc1ccc(CC[C@H]2OC(=O)[C@@H]3CCCCN3C(=O)C(=O)C(C)(C)COC(=O)C=CCCN(C)C(=O)CNC(=O)[C@H](COC(C)(C)C)N(C)C(=O)[C@@H](CC(C)C)NC(=O)CN(C)C(=O)COc3cccc2c3)cc1OC", 25.3),
    ("CCC[C@@H]1NC(=O)[C@H](Cc2ccccc2)N(C)C(=O)[C@@H](C)NC(=O)CN(C)C(=O)COc2cccc(c2)[C@@H](CCc2ccc(OC)c(OC)c2)OC(=O)[C@@H]2CCCCN2C(=O)C(=O)C(C)(C)COC(=O)C=CCCN(C)C1=O", 27.2),
    ("COc1cc(CC[C@H]2OC(=O)[C@@H]3CCCCN3C(=O)C(=O)C(C)(C)COC(=O)C=CCCN(C)C(=O)[C@@H]3CCCN3C(=O)[C@H](COC(C)(C)C)N(C)C(=O)C(c3ccccc3)NC(=O)[C@H](C)N(C)C(=O)COc3cccc2c3)c(OC)c(OC)c1 (some centres unmarked)", 26.8),
]

Moving on to another compound below.
Consider the compound COc1ccc(CC[C@H]2OC(=O)[C@@H]3CCCCN3C(=O)C(=O)C(C)(C)COC(=O)C=CCCN(C)C(=O)[C@@H]3CCCN3C(=O)[C@H](COC(C)(C)C)N(C)C(=O)[C@H](Cc3ccccc3)NC(=O)[C@H](C)N(C)C(=O)COc3cccc2c3)cc1OC and give its measured (%) inhibition of MIF nuclease activity. 9.1

====

Biological target: MIF (Homo sapiens)
Sequence (P14174 1-115): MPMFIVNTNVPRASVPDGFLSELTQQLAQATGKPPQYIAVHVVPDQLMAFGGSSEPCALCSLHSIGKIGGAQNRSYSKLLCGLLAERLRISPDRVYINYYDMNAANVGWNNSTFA
Experiment: Nuclease assay of Example 3 (MIF inhibitory activity, Table 4)
Format: biochemical
Set-up: concentration or dose not given beside the values
Details: nuclease assay of Example 3
Quick list: (%) inhibition of MIF nuclease activity per entry.
Answer with a number only, understood to be in %.

# compound, unitOfMeasure, (%) inhibition of MIF nuclease activity
data = [
    ("COc1ccc(CC[C@H]2OC(=O)[C@@H]3CCCCN3C(=O)C(=O)C(C)(C)COC(=O)C=CCCN(C)C(=O)[C@@H](C)NC(=O)[C@H](COC(C)(C)C)N(C)C(=O)[C@H](Cc3ccc4ccccc4c3)NC(=O)[C@H](C)N(C)C(=O)COc3cccc2c3)cc1OC", "%", 65.0),
]

Quick one: (%) inhibition of MIF nuclease activity for COc1ccc(CC[C@H]2OC(=O)[C@@H]3CCCCN3C(=O)C(=O)C(C)(C)COC(=O)C=CCCN(C)C(=O)[C@@H]3CCCN3C(=O)[C@H](COC(C)(C)C)N(C)C(=O)C(c3ccccc3)N(C)C(=O)[C@H](C)NC(=O)COc3cccc2c3)cc1OC (some centres unmarked) ? 9.4
